# Tested system: GPR30 (Mus musculus)
# Construct: mGPR30 stably expressed in MCF-7 cells
# Sequence (Q8BMP4 whole entry): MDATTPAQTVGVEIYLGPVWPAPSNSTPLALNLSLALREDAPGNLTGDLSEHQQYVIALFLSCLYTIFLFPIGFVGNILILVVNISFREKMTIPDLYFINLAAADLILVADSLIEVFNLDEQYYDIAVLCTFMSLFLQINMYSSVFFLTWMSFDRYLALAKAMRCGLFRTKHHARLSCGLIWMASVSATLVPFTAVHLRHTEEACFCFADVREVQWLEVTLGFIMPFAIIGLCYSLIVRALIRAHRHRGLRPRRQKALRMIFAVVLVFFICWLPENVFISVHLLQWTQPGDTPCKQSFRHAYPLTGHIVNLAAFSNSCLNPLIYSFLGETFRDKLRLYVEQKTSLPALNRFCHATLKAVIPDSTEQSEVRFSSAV
# Assay remarks: inositol phosphate accumulation in MCF-mGPR30 cells; calcium responses lost in Gpr30-null mural cells
Observed property: EC50 (mM)

INSERT INTO assay_data (compound, tested_system, observed_property, quantitative_readout) VALUES
  ('O=C(O)O [bicarbonate]', 'GPR30 (Mus musculus)', 'EC50', 12.2);
